What IC50 was measured for each of the following?
Tested on: HCT116 (colorectal carcinoma)
assay: MTT cytotoxicity assay, HCT-116
Format: cell-based
measurementContext: Homo sapiens, HCT-116, read-out: IC50 HCT-116
Give bare numbers, in µM.

COc1ccc(-c2nc(Sc3cc(C)nc4ncnn34)[nH]c(=O)c2C#N)cc1OC [Compound 11e]
8.89
Cc1cc(Sc2nnc(-c3ccc([N+](=O)[O-])cc3)o2)n2ncnc2n1 [Compound 13c]
6.1

Give measured IC50 for every item shown.
1. Cc1cc(Sc2nnc(-c3ccccc3)o2)n2ncnc2n1 [Compound 13a]
2. Cc1cc(Sc2nnc(-c3ccc(Cl)cc3)o2)n2ncnc2n1 [Compound 13d]
3. Cc1cc(Sc2nc(-c3ccc(Br)cc3)c(C#N)c(=O)[nH]2)n2ncnc2n1 [Compound 11a]
4. Cc1cc(N2CCN(C(=O)CN3CCOCC3)CC2)n2ncnc2n1 [Compound 7e]
5. Cc1cc(Sc2nc(-c3ccc(Cl)cc3)c(C#N)c(=O)[nH]2)n2ncnc2n1 [Compound 11b]

# output
[15, 24.8, 41, 88.4, 12.6]

# input Need IC50, item Cc1cc(Sc2nnc(-c3ccc(Br)cc3)o2)n2ncnc2n1 [Compound 13e]
# output 55.1
